Data provenance is patent US7589123B2.

# Tested on: IL-1α-induced PGE2 release
# assayExplanation: IL-1α-induced PGE2 release in human diploid lung fibroblasts (WI-38) (Assay 5)
# Assay type: cell-based
# conditionsUsed: Homo sapiens; 3 μM; WI-38 cells, IL-1α 1 nM, overnight
Where a name gives a salt, the structure may show the parent alone.
readout: inhibition at 3 µM (%)
Output spec: scalar in %, unitless text.

Value of measured inhibition at 3 µM for the entry COc1cc(CCC(=O)CC(=O)c2ccccc2)ccc1OCCN [Compound 87, hydrochloride] : -28

Value of measured inhibition at 3 µM for the entry COc1cc(CCC(=O)CC(=O)c2ccccc2-c2ccccc2)ccc1O : 73

Value of measured inhibition at 3 µM for the entry COc1cc(/C=C/C(=O)CC(=O)c2ccc(O)c(OC)c2)ccc1O : 10

Value of measured inhibition at 3 µM for the entry COc1cc(CCC(=O)CC(=O)c2ccc(C(C)(C)C)cc2)ccc1O : 86

Value of measured inhibition at 3 µM for the entry COc1cc(CCC(=O)CC(=O)C(C)(C)C)ccc1O : 88

Value of measured inhibition at 3 µM for the entry COc1cc(CCC(=O)CC(=O)c2cccc(Cl)c2)ccc1O : 93

Value of measured inhibition at 3 µM for the entry COc1cc(CCC(=O)CC(=O)c2ccc(O)c(OC)c2)ccc1O : 49

Value of measured inhibition at 3 µM for the entry COc1cc(CCC(=O)CC(=O)Cc2ccccc2)ccc1O : 87

Value of measured inhibition at 3 µM for the entry COc1cc(CCC(=O)CC(=O)c2ccccc2Cl)ccc1O : 99

---

# Tested on: WI-38 cells
# assayExplanation: Viability of WI-38 cells, Alamar Blue (Assay 5)
# Assay type: cell-based, human
# conditionsUsed: 30 μM
readout: Decrease in cell viability (%)

Value of measured Decrease in cell viability (%) for the entry COc1cc(CCC(=O)CC(=O)c2ccccc2C)ccc1O [Compound 84] : 12%

Value of measured Decrease in cell viability (%) for the entry COC(=O)c1ccc(C(=O)CC(=O)CCc2ccc(O)c(OC)c2)cc1 [Compound 25] : 0%

Value of measured Decrease in cell viability (%) for the entry COc1cc(CCC(=O)CC(=O)C2(C)CC2)ccc1O [Compound 6] : 4%

---

# Test system: IL-1α-induced PGE2 release
# assayExplanation: IL-1α-induced PGE2 release in human diploid lung fibroblasts (WI-38) (Assay 5)
# Format: cell-based
# conditionsUsed: Homo sapiens; 3 μM; WI-38 cells, IL-1α 1 nM, overnight
readout: inhibition at 3 µM (%)
Output spec: scalar in %, unitless text.

Value of measured inhibition at 3 µM for the entry COc1cc(CCC(=O)CC(=O)c2ccc(Cl)cc2)ccc1O : 88

Value of measured inhibition at 3 µM for the entry COc1cc(CCC(=O)CC(=O)Cc2cccc3ccccc23)ccc1O : 86

Value of measured inhibition at 3 µM for the entry COc1cc(CCC(=O)CC(=O)c2ccc3ccccc3c2)c(Cl)cc1O : 42

Value of measured inhibition at 3 µM for the entry COc1cc(CCC(=O)CC(=O)c2ccc(F)cc2)ccc1O : 87

Value of measured inhibition at 3 µM for the entry COc1cc(CCC(=O)C(C)C(=O)c2ccc(C)cc2)ccc1O (stereo not drawn) : 77

Value of measured inhibition at 3 µM for the entry COc1ccc(C(=O)C(C)C(=O)CCc2ccc(O)c(OC)c2)cc1 (stereo not drawn) : 58

---

For each record, write down the corresponding inhibition at 30 µM.
# Tested on: IL-1α-induced PGE2 release
# assayExplanation: IL-1α-induced PGE2 release in human diploid lung fibroblasts (WI-38) (Assay 5)
# Type: cell-based
# conditionsUsed: Homo sapiens; 30 μM; WI-38 cells, IL-1α 1 nM, overnight
Structures can show the parent of a compound that is named as a salt.
Write down the value, and be sure its unit follows.

Value of measured inhibition at 30 µM for the entry COc1cc(CCC(=O)CC(=O)c2ccc(-c3ccccc3)cc2)ccc1O : 99%

Value of measured inhibition at 30 µM for the entry COc1cc(CCC(=O)C(C)C(=O)c2ccccc2)ccc1O (stereo not shown) : 100%

Value of measured inhibition at 30 µM for the entry COC(=O)c1ccc(C(=O)CC(=O)CCc2ccc(O)c(OC)c2)cc1 : 102%

Value of measured inhibition at 30 µM for the entry COc1ccc(C(=O)C(C)C(=O)CCc2ccc(O)c(OC)c2)cc1 (stereo not shown) : 98%

Value of measured inhibition at 30 µM for the entry COc1cc(CCC(=O)CC(=O)c2ccccc2)ccc1OCCN [Compound 87, hydrochloride] : -62%

Value of measured inhibition at 30 µM for the entry COc1cc(CCC(=O)C(C)C(=O)C2(C)CC2)ccc1O (stereo not shown) : 94%

Value of measured inhibition at 30 µM for the entry COc1cc(CCC(=O)CC(=O)Cc2ccccc2)ccc1O : 99%

Value of measured inhibition at 30 µM for the entry COc1cc(CCC(=O)CC(=O)C(c2ccccc2)c2ccccc2)ccc1O : 99%

Value of measured inhibition at 30 µM for the entry COc1cc(CCC(=O)CC(=O)Cc2cccc3ccccc23)ccc1O : 99%

Value of measured inhibition at 30 µM for the entry COc1cc(CCC(=O)CC(=O)c2ccccc2Cl)ccc1O : 101%

Value of measured inhibition at 30 µM for the entry COc1cc(CCC(=O)CC(=O)c2cccc3ccccc23)ccc1O : 99%

Value of measured inhibition at 30 µM for the entry COc1cc(CCC(=O)CC(=O)C(C)(C)c2ccccc2)ccc1O : 101%

Value of measured inhibition at 30 µM for the entry COc1cc(CCC(=O)CC(=O)c2cccc(Cl)c2)ccc1O : 100%

Value of measured inhibition at 30 µM for the entry COc1cc(CCC(=O)CC(=O)c2ccccc2C)ccc1O : 102%

Value of measured inhibition at 30 µM for the entry COc1cc(/C=C/C(=O)CC(=O)c2ccc(O)c(OC)c2)ccc1O : 109%

Value of measured inhibition at 30 µM for the entry COc1cc(CCC(=O)CC(=O)C2(C)CC2)ccc1O : 102%

Value of measured inhibition at 30 µM for the entry COc1cc(CCC(=O)CC(=O)c2ccc(F)cc2)ccc1O : 99%

Value of measured inhibition at 30 µM for the entry COc1cc(CCC(=O)C(C)C(=O)c2ccc(C)cc2)ccc1O (stereo not shown) : 101%

Value of measured inhibition at 30 µM for the entry COc1cc(CCC(=O)CC(=O)c2ccc(C)cc2)ccc1O : 102%

---

# Test system: WI-38 cells
# assayExplanation: Viability of WI-38 cells, Alamar Blue (Assay 5)
# Type: cell-based, human
# conditionsUsed: 3 μM
For each record, write down the corresponding Decrease in cell viability (%).
Write down the value, and be sure its unit follows.

Value of measured Decrease in cell viability (%) for the entry COc1cc(CCC(=O)CC(=O)c2ccc(Cl)cc2Cl)ccc1O [Compound 24] : 7%

Value of measured Decrease in cell viability (%) for the entry COc1cc(/C=C/C(=O)CC(=O)C(C)(C)C)ccc1O [Compound 34] : 3%

Value of measured Decrease in cell viability (%) for the entry COc1cc(CCC(=O)C(C)(C)C(=O)C(C)(C)C)ccc1O [Compound 71] : −1%

---

readout: melting point

Value of measured melting point for the entry COc1cc(CCC(=O)CC(=O)c2ccc3ccccc3c2)ccc1O : 101 to 102 °C

Value of measured melting point for the entry COc1cc(/C=C/C(=O)CC(=O)c2cccc(C)c2)ccc1O : 52 °C

Value of measured melting point for the entry COc1cc(/C=C/C(=O)CC(=O)c2ccc(Cl)cc2C)ccc1O : 78 °C

Value of measured melting point for the entry COc1cc(/C=C/C(=O)CC(=O)Cc2ccccc2)ccc1O : 106 °C

Value of measured melting point for the entry COc1cc(/C=C/C(=O)CC(=O)c2ccc(O)c(OC)c2)ccc1O : 170 to 172 °C

Value of measured melting point for the entry COc1cc(C=CC(=O)CC(=O)c2ccc(Cl)c(Cl)c2)ccc1O : 78 to 80 °C

Value of measured melting point for the entry COc1cc(C=CC(=O)CC(=O)c2ccc(Cl)cc2Cl)ccc1O : 86 to 87 °C

Value of measured melting point for the entry COc1cc(/C=C/C(=O)CC(=O)c2ccc(C)c(Cl)c2)ccc1O : 70 to 72 °C

Value of measured melting point for the entry COc1cc(/C=C/C(=O)C(C)(C)C(=O)C(C)(C)C)ccc1O : 98 to 99 °C

Value of measured melting point for the entry COc1cc(C=CC(=O)CC(=O)c2ccc(Cl)cc2)ccc1O : 57 to 63 °C

Value of measured melting point for the entry COc1cc(C=CC(=O)CC(=O)c2cccc(Cl)c2)ccc1O : 54 to 55 °C

Value of measured melting point for the entry COc1cc(CCC(=O)CC(=O)c2ccc(-c3ccccc3)cc2)ccc1O : 118 to 119 °C

Value of measured melting point for the entry COc1cc(/C=C/C(=O)CC(=O)c2ccc(C(C)(C)C)cc2)ccc1O : 87 to 88 °C

Value of measured melting point for the entry COc1cc(/C=C/C(=O)CC(=O)C2CC2)ccc1O : 74.5 to 79 °C

Value of measured melting point for the entry COc1cc(/C=C/C(=O)CC(=O)C2(C)CC2)ccc1O : 78 to 80 °C

Value of measured melting point for the entry COc1cc(CCC(=O)CC(=O)c2ccccc2)ccc1OCCN.Cl : 80 °C

Value of measured melting point for the entry COc1cc(/C=C/C(=O)CC(=O)c2ccc3ccccc3c2)c(Cl)cc1O : 134 °C

Value of measured melting point for the entry COc1cc(/C=C/C(=O)CC(=O)c2ccccc2Cl)ccc1O : 89 °C

Value of measured melting point for the entry COc1cc(/C=C/C(=O)CC(=O)c2ccc(C#N)cc2)ccc1O : 128 to 130 °C
